# Tested on: large crabgrass (Digitaria sanguinalis, DIGSA)
# testSummary: Post-emerge greenhouse herbicide test, phytotoxicity rating
# Assay type: in vivo
# reportedConditions: 63 g al/ha, 14 days after application
measurementName: DIGSA phytotoxicity rating (0-100)

A selection of reference data follows.
>  <molecule>
COc1nc(OC)nc(Oc2cc(-c3nc(C)n(C(F)F)c3Cl)c(F)cc2Cl)n1 [Compound 2-4]

>  <DIGSA phytotoxicity rating (0-100)>
0

$$$$
>  <molecule>
CC(=O)Nc1ccc(Oc2cc(-n3c(=O)n4n(c3=S)CCCC4)c(F)cc2Cl)c(C(F)(F)F)c1 [Compound 8-16]

>  <DIGSA phytotoxicity rating (0-100)>
0

$$$$
>  <molecule>
O=c1sc(=Nc2cc(Oc3ncccn3)c(Cl)cc2F)n2n1CCCC2 [Compound 7-2]

>  <DIGSA phytotoxicity rating (0-100)>
30

$$$$
>  <molecule>
Nc1ccc(Oc2cc(-n3c(=O)n4n(c3=S)CCCC4)c(F)cc2Cl)c(C(F)(F)F)c1 [Compound 8-15]

>  <DIGSA phytotoxicity rating (0-100)>
0

$$$$
>  <molecule>
O=c1n(CCCF)nnn1-c1cc(Oc2ncccn2)c(Cl)cc1Cl [Compound 6-14]

>  <DIGSA phytotoxicity rating (0-100)>
0

$$$$

stdin: Recorded DIGSA phytotoxicity rating (0-100) for Cn1nc(-c2cc(Oc3ncccc3C#N)c(Cl)cc2F)c(Cl)c1C(F)(F)F [Compound 1-3] , please?
stdout: 0

stdin: Consider next the molecule O=c1n(CCCF)nnn1-c1cc(Oc2ncccc2C(F)(F)F)c(Cl)cc1F [Compound 6-6] in the same way.
stdout: 0

stdin: Consider next the molecule Cn1nc(-c2cc(Oc3cccc(F)n3)c(Cl)cc2F)c(Cl)c1C(F)(F)F [Compound 1-5] in the same way.
stdout: 50

###

Listed here: items and their measured phytotoxicity rating CASOB.
# Test system: sicklepod (Cassia obtusifolia, CASOB)
# testSummary: Pre-emerge greenhouse herbicide test, phytotoxicity rating
# Format: in vivo
# reportedConditions: 500 g ai/ha, 14 days after application, rating scale 0-100
Output spec: single numeric token, no unit.

>  <molecule>
Cn1nc(-c2cc(Oc3nc(F)c(F)cc3F)c(Cl)cc2F)c(Cl)c1C(F)(F)F

>  <phytotoxicity rating CASOB>
0

$$$$

stdin: Recorded phytotoxicity rating CASOB for CCOC(=O)C(C)Oc1ccc(Oc2cc(-n3c(=O)n4n(c3=S)CCCC4)c(F)cc2Cl)cc1 (centres unmarked) , please?
stdout: 60

stdin: Consider next the molecule "O=c1n(CCCF)nnn1-c1cc(Oc2ccc(C(F)(F)F)cn2)c(Cl)cc1Cl" in the same way.
stdout: 0

stdin: Consider next the molecule "COc1nc(OC)nc(Oc2cc(-c3nn(C)c(C(F)(F)F)c3Cl)c(F)cc2Cl)n1" in the same way.
stdout: 0

stdin: Consider next the molecule "Cn1nc(-c2cc(Oc3ncccc3C(F)(F)F)c(Cl)cc2F)c(Cl)c1C(F)(F)F" in the same way.
stdout: 0

stdin: Consider next the molecule "O=c1n(CCCF)nnn1-c1cc(Oc2ccc(C(F)(F)F)cn2)c(Cl)cc1F" in the same way.
stdout: 0

stdin: Consider next the molecule "Cn1nc(-c2cc(Oc3ncccc3[N+](=O)[O-])c(Cl)cc2F)c(Cl)c1C(F)(F)F" in the same way.
stdout: 20

stdin: Consider next the molecule "N#Cc1ccccc1Oc1cc(-n2c(=O)n3n(c2=S)CCCC3)c(F)cc1Cl" in the same way.
stdout: 100

###

# System: redroot pigweed (Amaranthus retroflexus, AMARE)
# testSummary: Post-emerge greenhouse herbicide test, phytotoxicity rating
# Assay type: in vivo
# reportedConditions: 500 g al/ha, 14 days after application
measurementName: AMARE phytotoxicity rating (0-100)
Output spec: single numeric token, no unit.

>  <molecule>
Cn1nc(-c2cc(Oc3ncccc3[N+](=O)[O-])c(Cl)cc2F)c(Cl)c1C(F)(F)F

>  <systemName>
redroot pigweed (Amaranthus retroflexus, AMARE)

>  <readoutValue>
100

$$$$
>  <molecule>
Cn1c(C(F)(F)F)nc(-c2cc(Oc3ncccc3[N+](=O)[O-])c(Cl)cc2F)c1Cl

>  <systemName>
redroot pigweed (Amaranthus retroflexus, AMARE)

>  <readoutValue>
100

$$$$
>  <molecule>
COc1cc(OC)nc(Oc2cc(-n3nnn(CCCF)c3=O)c(F)cc2Cl)n1

>  <systemName>
redroot pigweed (Amaranthus retroflexus, AMARE)

>  <readoutValue>
95

$$$$
>  <molecule>
N#Cc1cc([N+](=O)[O-])ccc1Oc1cc(-n2c(=O)n3n(c2=S)CCCC3)c(F)cc1Cl

>  <systemName>
redroot pigweed (Amaranthus retroflexus, AMARE)

>  <readoutValue>
100

$$$$
>  <molecule>
O=c1cc2n(c(=O)n1-c1cc(Oc3ncccn3)c(Cl)cc1F)CCC2

>  <systemName>
redroot pigweed (Amaranthus retroflexus, AMARE)

>  <readoutValue>
40

$$$$

stdin: Recorded AMARE phytotoxicity rating (0-100) for "Cn1nc(-c2cc(Oc3ncccc3C#N)c(Cl)cc2F)c(Cl)c1C(F)(F)F" , please?
stdout: 100

stdin: Consider next the molecule "Cn1nc(-c2cc(Oc3ccc(C#N)cn3)c(Cl)cc2F)c(Cl)c1C(F)(F)F" in the same way.
stdout: 100

stdin: Consider next the molecule "O=c1n(CCCF)nnn1-c1cc(Oc2ncccn2)c(Cl)cc1Cl" in the same way.
stdout: 100

stdin: Consider next the molecule "Cn1nc(-c2cc(Oc3ncccc3C(F)(F)F)c(Cl)cc2F)c(Cl)c1C(F)(F)F" in the same way.
stdout: 100

stdin: Consider next the molecule "O=c1n(CCCF)nnn1-c1cc(Oc2ncc(Br)cn2)c(Cl)cc1F" in the same way.
stdout: 100

stdin: Consider next the molecule "O=c1n(CCCF)nnn1-c1cc(Oc2ccc(C(F)(F)F)cn2)c(Cl)cc1F" in the same way.
stdout: 80

###

# Tested on: green foxtail (Setaria viridis, SETVI)
# testSummary: Post-emerge greenhouse herbicide test, phytotoxicity rating
# Type: in vivo
# reportedConditions: Setaria viridis, post-emergence, 336 h, rate 63 g ai/ha, 14 days after application, scale 0-100
Label N if pest or weed control at 63 g/ha falls below 20%; label Y in every other case.

>  <smi>
Nn1c(C(F)(F)F)cc(=O)n(-c2cc(Oc3ccc(Br)cn3)c(Cl)cc2F)c1=O

>  <assignedClass>
N

$$$$
>  <smi>
Nn1c(C(F)(F)F)cc(=O)n(-c2cc(Oc3cc(C(F)(F)F)ccn3)c(Cl)cc2F)c1=O

>  <assignedClass>
Y

$$$$
>  <smi>
Nn1c(C(F)(F)F)cc(=O)n(-c2cc(Oc3ccccc3C(F)(F)F)c(Cl)cc2F)c1=O

>  <assignedClass>
Y

$$$$

# evaluate next
stdin: Please indicate if the recorded pest or weed control at 63 g/ha for "Nn1c(C(F)(F)F)cc(=O)n(-c2cc(Oc3cc([N+](=O)[O-])cc(C(F)(F)F)c3)c(Cl)cc2F)c1=O" meets or exceeds 20%.
stdout: N

###

# Test system: redroot pigweed (Amaranthus retroflexus, AMARE)
# testSummary: Post-emerge greenhouse herbicide test, phytotoxicity rating
# Format: in vivo
# reportedConditions: 500 g al/ha, 14 days after application
measurementName: AMARE phytotoxicity rating (0-100)
Output spec: single numeric token, no unit.

>  <smi>
O=c1sc(=Nc2cc(Oc3ncccn3)c(Cl)cc2F)n2n1CCCC2

>  <measurementName>
AMARE phytotoxicity rating (0-100)

>  <readoutValue>
100

$$$$
>  <smi>
CN1CC(=O)N(c2cc(Oc3ncccn3)c(Cl)cc2F)C1=O

>  <measurementName>
AMARE phytotoxicity rating (0-100)

>  <readoutValue>
75

$$$$
>  <smi>
N#Cc1cccnc1Oc1cc(-n2nnn(CCCF)c2=O)c(F)cc1Cl

>  <measurementName>
AMARE phytotoxicity rating (0-100)

>  <readoutValue>
99

$$$$
>  <smi>
Nc1ccc(Oc2cc(-n3c(=O)n4n(c3=S)CCCC4)c(F)cc2Cl)cc1

>  <measurementName>
AMARE phytotoxicity rating (0-100)

>  <readoutValue>
100

$$$$

Could you now look at the following molecule, please?
stdin: Recorded AMARE phytotoxicity rating (0-100) for "O=C1C2=CCCCN2C(=O)N1c1cc(Oc2ncccc2C(F)(F)F)c(Cl)cc1F" , please?
stdout: 100

###

# System: upland rice (Oryza sp., var.Tebonnet, RICE)
# testSummary: Pre-emerge greenhouse test, crop damage rating
# Format: in vivo
# reportedConditions: 500 g ai/ha, 14 days after application, rating scale 0-100
measurementName: crop damage rating RICE
Output spec: single numeric token, no unit.

A selection of reference data follows.
>  <compound>
Cn1nc(-c2cc(Oc3ncccc3[N+](=O)[O-])c(Cl)cc2F)c(Cl)c1C(F)(F)F

>  <crop damage rating RICE>
20

$$$$
>  <compound>
Nc1ccc(Oc2cc(-n3c(=O)n4n(c3=S)CCCC4)c(F)cc2Cl)cc1

>  <crop damage rating RICE>
0

$$$$
>  <compound>
CCN1CC(=O)N(c2cc(Oc3ncccc3C(F)(F)F)c(Cl)cc2F)C1=O

>  <crop damage rating RICE>
30

$$$$
>  <compound>
O=c1n(CCCF)nnn1-c1cc(Oc2ncccc2C(F)(F)F)c(Cl)cc1Cl

>  <crop damage rating RICE>
40

$$$$
>  <compound>
Cn1c(C(F)(F)F)nc(-c2cc(Oc3ncccc3C(F)(F)F)c(Cl)cc2F)c1Cl

>  <crop damage rating RICE>
0

$$$$
>  <compound>
N#Cc1cccnc1Oc1cc(-n2nnn(CCCF)c2=O)c(F)cc1Cl

>  <crop damage rating RICE>
35

$$$$
>  <compound>
O=c1sc(=Nc2cc(Oc3ncccn3)c(Cl)cc2F)n2n1CCCC2

>  <crop damage rating RICE>
100

$$$$
>  <compound>
O=C1C2=CCCCN2C(=O)N1c1cc(Oc2ncccc2C(F)(F)F)c(Cl)cc1F

>  <crop damage rating RICE>
0

$$$$

stdin: Recorded crop damage rating RICE for "O=c1n(CCCF)nnn1-c1cc(Oc2ccc(C(F)(F)F)cn2)c(Cl)cc1F" , please?
stdout: 10

stdin: Consider next the compound "N#Cc1ccccc1Oc1cc(-n2c(=O)n3n(c2=S)CCCC3)c(F)cc1Cl" in the same way.
stdout: 50

stdin: Consider next the compound "Cn1nc(-c2cc(Oc3cccc(F)n3)c(Cl)cc2F)c(Cl)c1C(F)(F)F" in the same way.
stdout: 20

stdin: Consider next the compound "O=c1n(CCCF)nnn1-c1cc(Oc2ncc(Br)cn2)c(Cl)cc1F" in the same way.
stdout: 50

stdin: Consider next the compound "N#Cc1cccnc1Oc1cc(-n2nnn(CCCF)c2=O)c(Cl)cc1Cl" in the same way.
stdout: 10

stdin: Consider next the compound "CN1CC(=O)N(c2cc(Oc3ncccn3)c(Cl)cc2F)C1=O" in the same way.
stdout: 30

stdin: Consider next the compound "O=c1cc2n(c(=O)n1-c1cc(Oc3ncccn3)c(Cl)cc1F)CCC2" in the same way.
stdout: 100

stdin: Consider next the compound "Cn1nc(-c2cc(Oc3ncccc3C(F)(F)F)c(Cl)cc2F)c(Cl)c1C(F)(F)F" in the same way.
stdout: 40

stdin: Consider next the compound O=C1C2CCCCN2C(=O)N1c1cc(Oc2ncccc2C(F)(F)F)c(Cl)cc1F (centres unmarked) in the same way.
stdout: 30
